Assayed target: human S1P1 receptor (Homo sapiens)
Construct: expressed in transfected cells; membranes were used
Sequence (P21453 whole entry): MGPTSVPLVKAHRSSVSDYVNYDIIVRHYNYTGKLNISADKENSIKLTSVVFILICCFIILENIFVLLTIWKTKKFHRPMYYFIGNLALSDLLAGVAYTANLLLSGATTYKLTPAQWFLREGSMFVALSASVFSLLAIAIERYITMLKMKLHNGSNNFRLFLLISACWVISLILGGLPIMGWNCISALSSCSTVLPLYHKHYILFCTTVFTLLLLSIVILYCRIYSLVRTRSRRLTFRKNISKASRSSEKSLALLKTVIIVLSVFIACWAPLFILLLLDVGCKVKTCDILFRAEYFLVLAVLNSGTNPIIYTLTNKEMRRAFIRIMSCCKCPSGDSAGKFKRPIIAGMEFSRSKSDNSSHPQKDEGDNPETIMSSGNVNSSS
Procedure details: GTP γ35S binding assay for S1P1 activity
Format: biochemical
Condition notes: membranes of cells stably expressing the S1P1 receptor, read-out: Activity potency: S1P1 receptor from GTP γ35S, S1P1 EC50
pEC50: −log10 of the molar value.
Quantity kind: pEC50

{"columns": ["Compound", "pEC50"],
 "data": [
  ["Cc1cc(CNCCCP(=O)(O)O)ccc1SCCCCCc1ccc(F)cc1", 7.57],
  ["N#Cc1cc(CNCCCP(=O)(O)O)ccc1SCCCCCc1ccccc1", 8.21]
]}

a = O=P(O)(O)CCCNCc1ccc(SCCCCCc2ccc(F)cc2)c(OC(F)(F)F)c1
b = COc1ccc(CCCCCSc2ccc(CNCCCP(=O)(O)O)cc2OC(F)(F)F)cc1
*Q* # returns the entry with the larger pEC50; inputs a and b Write down the label attached to your selection.
*A* a

P = O=P(O)(O)CCCNCc1cc(F)c(SCCCCC2(c3ccccc3)CCCCC2)cc1F
Q = CC(CCNCc1ccc(SCCCCCc2ccccc2)c(Cl)c1)P(=O)(O)O (centres unmarked)
R = COc1ccc(CCCCCSc2ccc(CNCCCP(=O)(O)O)cc2C(F)(F)F)cc1
S = O=P(O)(O)CCCNCc1ccc(SCCCCC2(c3ccccc3)CCCCC2)c(Cl)c1
T = Cc1ccc(CCCCCSc2ccc(CNCCCP(=O)(O)O)cc2OC(F)(F)F)cc1
*Q* Number of compounds to sort: 5. Sort criterion: pEC50, ascending. Respond with an ordered listing of the labels, as requested.
*A* R, Q, T, S, P

A = O=P(O)(O)CCCNCc1ccc(SCCCCCc2ccc(Cl)cc2)c(OC(F)(F)F)c1
B = O=P(O)(O)C(F)(F)CCNCc1ccc(SCCCCCc2ccccc2)c(OC(F)(F)F)c1
*Q* Lowest pEC50? choose A or B State the label of the item chosen.
*A* B
(B: 7.87, A: 8.10)

1 = O=P(O)(O)CCCNCc1ccc(SCCCCCc2ccc(F)cc2)cc1C(F)(F)F
2 = O=P(O)(O)C(F)(F)CCNCc1ccc(SCCCCCc2ccccc2)c(Cl)c1
3 = O=P(O)(O)CCCNCc1ccc(SCCCCCc2ccccc2)cc1Cl
4 = O=P(O)(O)CCCNCc1ccc(SCCCCCc2ccccc2)c(F)c1
*Q* Task for the reader: rank each entry by its pEC50, from the minimum upward. Your answer should be the labels, listed in the requested order.
*A* 1, 2, 3, 4

a = O=P(O)(O)CCCNCc1ccc(SCCCCCc2ccc(Cl)cc2)c(C(F)(F)F)c1
b = O=P(O)(O)CCCNCc1ccc(SCCCCCc2ccccc2)cc1C(F)(F)F
*Q* Which entry shows the lesser value of pEC50 here, a or b ? Write down the label of the entry you select.
*A* b

A = Cc1cc(CNCCCP(=O)(O)O)ccc1SCCCCCc1ccccc1
B = O=P(O)(O)CCCNCc1ccc(SCCCCCc2ccc(F)cc2)c(C(F)(F)F)c1
C = O=P(O)(O)CCCNCc1ccc(SCCCCCc2ccccc2)c(Br)c1
*Q* // sort entries: pEC50, high to low Write the labels out in the order the request specifies.
*A* C, A, B

P = O=P(O)(O)CCCNCc1ccc(SCCCCCc2ccccc2)cc1
Q = O=P(O)(O)CCCNCc1ccc(SCCCCCc2ccccc2)c(Cl)c1
*Q* Hi there! Just curious which has the higher pEC50 between P and Q . // return label of chosen record
*A* Q

1 = Cc1ccc(CCCCCSc2ccc(CNCCCP(=O)(O)O)cc2C)cc1
2 = CC(C)(CCCCSc1ccc(CNCCCP(=O)(O)O)cc1Br)c1ccccc1
*Q* Endpoint returns whichever of 1 and 2 has the numerically higher pEC50. I would appreciate it if you answered with the label of your choice.
*A* 2
(2: 7.88, 1: 7.38)

a = N#Cc1cc(CNCCCP(=O)(O)O)ccc1SCCCCCc1ccc(F)cc1
b = O=P(O)(O)CCCNCc1ccc(SCCCCCc2ccccc2)c(OC(F)(F)F)c1
*Q* Between the entries labelled a and b , which has a larger pEC50 value on record? // respond with label for picked entry
*A* b
(b: 9.22, a: 8.62)
